- measurement_description: Volume of distribution after intravenous administration was evaluated in rat
- Assay type: ADME, organism-based
- assay_conditions: in vivo, read-out: Vdss
measurement_kind: Vd (L/kg)

[[record]]
smiles_entry = "COc1ccc(NS(=O)(=O)C(F)(F)F)cc1C[C@H]1[C@@H](O)c2cc(OCc3nc4cc(F)c(F)cc4s3)ccc2OC1(C)C"
scale_unit = "L/kg"
meas_value = 3.8

[[record]]
smiles_entry = "O=C(O)c1cccc(C[C@@H]2COc3ccc(OCc4nc5cc(F)ccc5s4)cc3[C@@H]2O)c1"
scale_unit = "L/kg"
meas_value = 0.4

[[record]]
smiles_entry = "COc1ccc(NS(=O)(=O)C(F)(F)F)cc1C[C@H]1[C@@H](O)c2cc(OCc3ccc4ccc(Cl)cc4n3)ccc2OC1(C)C"
scale_unit = "L/kg"
meas_value = 1.6


These measurements were taken from ChEMBL document CHEMBL1130713.
